Origin of values: ChEMBL document CHEMBL1201862

GI50 values by entry
- Test system: CAKI-1
- test_name: NCI tumour cell line growth inhibition, 48 h
Calls of active or inactive are those of the source. Cut-off read from the data, not from the text of the source: active = GI50 up to about 1.1 µM and inactive = higher.
recorded_endpoint: GI50

> print(dat)
                                   compound  recorded.endpoint      measured.result
1  COc1cc2c(c(OC3OC(CO)C(O)C(O)C3O)c1)C(=O)CC(c1ccc(O)cc1)O2 (centres undefined)               GI50  > 100 µM (inactive)
2       NCCc1ccc(S(=O)(=O)O)cc1[N+](=O)[O-]               GI50  > 100 µM (inactive)
3  CC1=NN(c2ccccc2)C(=O)C1C(=O)C(=O)Nc1ccc(C)cc1C (centres undefined)               GI50  > 100 µM (inactive)
4  Cc1ccccc1-c1nc2c(C(=O)NCCN(C)C)cccc2[nH]1               GI50   47.6 µM (inactive)
